Target: T1, IFN-αWA (human, UniProt P05015 24-189)
T1 construct: also called IFN-α16; alpha WA
Assay: ProteOn, one antigen concentration
pKd: −log10 of the molar value.
ATTRIBUTE_MEASURED: pKd

1) IFWM3305 (antibody, V domains shown, VH IFWH591, VL IFWL998; converted mAb; also called IFWB3040) VH: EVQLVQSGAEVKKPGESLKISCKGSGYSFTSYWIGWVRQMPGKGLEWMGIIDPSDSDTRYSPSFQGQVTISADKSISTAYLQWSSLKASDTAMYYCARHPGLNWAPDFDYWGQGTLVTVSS VL: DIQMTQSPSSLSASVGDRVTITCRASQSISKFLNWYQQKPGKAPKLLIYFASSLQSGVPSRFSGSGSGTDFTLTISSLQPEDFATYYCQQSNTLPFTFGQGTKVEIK    9.70
2) IFWM3292 (antibody, V domains shown, VH IFWH624, VL IFWL999; converted mAb; also called IFWB3027) VH: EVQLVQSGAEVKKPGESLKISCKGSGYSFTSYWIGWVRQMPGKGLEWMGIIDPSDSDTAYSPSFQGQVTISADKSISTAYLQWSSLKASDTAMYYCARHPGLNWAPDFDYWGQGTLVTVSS VL: DIQMTQSPSSLSASVGDRVTITCRASQSIDEFLNWYQQKPGKAPKLLIYFASSLQSGVPSRFSGSGSGTDFTLTISSLQPEDFATYYCQQAHSFPLTFGQGTKVEIK    10.14
3) IFWM3333 (antibody, V domains shown, VH IFWH591, VL IFWL1076; converted mAb; also called IFWB3068) VH: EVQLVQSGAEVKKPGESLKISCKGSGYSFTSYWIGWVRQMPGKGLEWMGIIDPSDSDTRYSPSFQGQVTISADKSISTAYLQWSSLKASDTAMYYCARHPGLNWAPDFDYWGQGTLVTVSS VL: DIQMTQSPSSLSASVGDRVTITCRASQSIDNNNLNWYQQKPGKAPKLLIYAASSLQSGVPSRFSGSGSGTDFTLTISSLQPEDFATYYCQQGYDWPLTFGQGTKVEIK    9.59
4) IFWM3317 (antibody, V domains shown, VH IFWH591, VL IFWL1026; converted mAb; also called IFWB3052) VH: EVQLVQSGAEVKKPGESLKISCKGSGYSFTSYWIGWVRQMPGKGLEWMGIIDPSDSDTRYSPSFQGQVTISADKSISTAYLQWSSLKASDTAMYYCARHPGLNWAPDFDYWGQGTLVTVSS VL: DIQMTQSPSSLSASVGDRVTITCRASQSISKFLNWYQQKPGKAPKLLIYFASSLQSGVPSRFSGSGSGTDFTLTISSLQPEDFATYYCQQSYDFPITFGQGTKVEIK    9.79
5) IFWM3339 (antibody, V domains shown, VH IFWH591, VL IFWL1093; converted mAb; also called IFWB3074) VH: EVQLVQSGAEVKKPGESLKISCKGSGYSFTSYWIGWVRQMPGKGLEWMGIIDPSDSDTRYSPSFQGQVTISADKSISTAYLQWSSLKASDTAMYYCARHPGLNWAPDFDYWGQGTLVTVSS VL: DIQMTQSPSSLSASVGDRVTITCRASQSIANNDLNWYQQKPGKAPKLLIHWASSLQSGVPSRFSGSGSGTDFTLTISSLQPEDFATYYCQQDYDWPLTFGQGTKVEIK    9.85
